- tested_on: T1, recombinant biotinylated human PD-L1 ectodomain (IgV and IgC domains, residues 19-239) (human, UniProt Q9NZQ7 19-239, enzymatically biotinylated (BirA) on the biotin acceptor peptide)
- T1 construct: also called biotinylated hPD-L1; biotinylated PD-L1; not shown: carboxy-terminal 8x histidine tag
- assay_method_text: surface plasmon resonance, biotinylated hPD-L1 immobilized on a streptavidin chip; column head 'PD-L1 affinity'
endpoint: Kd (nM)
Expressed in nM, but write only the number.

# query: Kd of entry G2 4-5 (designed binder, also called Generation 2, clone 4-5) PD-1 variant IgV domain: DSPDRPWNPPTFSPALLVVTEGDNATFTCSFSNTSESFHVVWHRESPSSQTDTLAAFPEDRSQPGPDARFRVTQLPNGRDFQLSVVRARRNDSGTYVCGVISLAPKIQIKESLRAELRVTER
0.196

# query: Kd of entry G1 4-1 (designed binder, also called Generation 1, clone 4-1) PD-1 variant IgV domain: DSPDRPWNPPTFSPALLVVTEGDNATFTCSFSNTSESFRLVWHRESPGYETDTLASFPEDRSTPLPDCRFRVTQLPNGRDFHMSVVRARRNDSGTYVCGAIAFHPVIQIKESLRAELRVTER
7.78

# query: Kd of entry G2 4-2 (designed binder) DSPDRPWNPPTFSPALLVVTEGDNATFTCSFSNTSESFHIIWHRESPSGQTDTLAAFPEDRSQPGQDARFRVTQLPNGRDFHLSVVRARRNDSGTYVCGVISLAPKIQIKESLRAELRVTERHHHHHHHH
0.222

# query: Kd of entry wild-type human PD-1 IgV domain (residues 26-147), native PD-1 mimic polypeptide (receptor, Soluble monomer secreted from High Five insect cells; also called wild-type hPD-1; WT PD-1 monomer) DSPDRPWNPPTFSPALLVVTEGDNATFTCSFSNTSESFVLNWYRMSPSNQTDKLAAFPEDRSQPGQDCRFRVTQLPNGRDFHMSVVRARRNDSGTYLCGAISLAPKAQIKESLRAELRVTERHHHHHHHH
3880
